Test system: NCI-H2170
experiment_description: relative viability (nuclei count vs DMSO), 5 days (fraction); higher = more cells survive
test_conditions: first compound 0.08 µM
Field 'label' (enum: Fulfilled / Not fulfilled). Set to Fulfilled when relative viability is strictly under 0.7; else Not fulfilled.

compound="C=C1C(=O)O[C@@H](CCCCCCCC)[C@@H]1C(=O)O [C-75] + Nc1ncn([C@H]2C[C@H](O)[C@@H](CO)O2)c(=O)n1 [Decitabine] (partner 2 µM)" group=Fulfilled
compound="C=C1C(=O)O[C@@H](CCCCCCCC)[C@@H]1C(=O)O [C-75] + COc1cccc2cc(-c3nc([C@H]4CC[C@H](C(=O)O)CC4)n4ncnc(N)c34)[nH]c12 [OSI-027] (partner 0.5 µM)" group="Not fulfilled"
compound="C=C1C(=O)O[C@@H](CCCCCCCC)[C@@H]1C(=O)O [C-75] + C[C@@H](Oc1cc(-c2cnn(C3CCNCC3)c2)cnc1N)c1c(Cl)ccc(F)c1Cl [Crizotinib] (partner 1 µM)" group="Not fulfilled"
compound="C=C1C(=O)O[C@@H](CCCCCCCC)[C@@H]1C(=O)O [C-75] + Cc1nc(NC(=O)N2CCC[C@H]2C(N)=O)sc1-c1ccnc(C(C)(C)C(F)(F)F)c1 [Alpelisib] (partner 2 µM)" group="Not fulfilled"
compound="Oc1nc(-c2ccc(C(F)(F)F)cc2)nc2c1CSCC2 [XAV939] + Nc1ncn([C@H]2C[C@H](O)[C@@H](CO)O2)c(=O)n1 [Decitabine] (partner 2 µM)" group=Fulfilled
compound="Oc1nc(-c2ccc(C(F)(F)F)cc2)nc2c1CSCC2 [XAV939] + NC(=O)Nc1cc(-c2cccc(F)c2)sc1C(=O)N[C@H]1CCCNC1 [AZD7762] (partner 0.2 µM)" group="Not fulfilled"
compound="Oc1nc(-c2ccc(C(F)(F)F)cc2)nc2c1CSCC2 [XAV939] + O=C(c1cc(Cc2n[nH]c(=O)c3ccccc23)ccc1F)N1CCN(C(=O)C2CC2)CC1 [Olaparib] (partner 8 µM)" group=Fulfilled

---

Tested on: NCI-H1792
experiment_description: relative viability (nuclei count vs DMSO), 5 days (fraction); higher = more cells survive
test_conditions: first compound 0.03162 µM
outcome_measure: relative viability

molecule="NC(=O)Nc1cc(-c2cccc(F)c2)sc1C(=O)N[C@H]1CCCNC1 [AZD7762] + O=C(c1cc(Cc2n[nH]c(=O)c3ccccc23)ccc1F)N1CCN(C(=O)C2CC2)CC1 [Olaparib] (partner 8 µM)" experimental_system=NCI-H1792 outcome_measure="relative viability" assay_value=0.421
molecule="NC(=O)Nc1cc(-c2cccc(F)c2)sc1C(=O)N[C@H]1CCCNC1 [AZD7762] + N=C(N)NC(=N)NCCc1ccccc1 [Phenformin] (partner 250 µM)" experimental_system=NCI-H1792 outcome_measure="relative viability" assay_value=0.26
molecule="NC(=O)Nc1cc(-c2cccc(F)c2)sc1C(=O)N[C@H]1CCCNC1 [AZD7762] + CS(=O)(=O)N1CCN(Cc2cc3nc(-c4cccc5[nH]ncc45)nc(N4CCOCC4)c3s2)CC1 [Pictilisib] (partner 1 µM)" experimental_system=NCI-H1792 outcome_measure="relative viability" assay_value=0.328
molecule="NC(=O)Nc1cc(-c2cccc(F)c2)sc1C(=O)N[C@H]1CCCNC1 [AZD7762] + CS(=O)(=O)CCNCc1ccc(-c2ccc3ncnc(Nc4ccc(OCc5cccc(F)c5)c(Cl)c4)c3c2)o1 [Lapatinib] (partner 2 µM)" experimental_system=NCI-H1792 outcome_measure="relative viability" assay_value=0.911

---

System: NCI-H1299
experiment_description: relative viability (nuclei count vs DMSO), 5 days (fraction); higher = more cells survive
test_conditions: first compound 0.1 µM
Below, each entry is listed alongside its reported relative viability.
outcome_measure: relative viability

molecule="NC(=O)Nc1cc(-c2cccc(F)c2)sc1C(=O)N[C@H]1CCCNC1 [AZD7762] + CS(=O)(=O)N1CCN(Cc2cc3nc(-c4cccc5[nH]ncc45)nc(N4CCOCC4)c3s2)CC1 [Pictilisib] (partner 1 µM)" outcome_measure="relative viability" assay_value=0.622
molecule="NC(=O)Nc1cc(-c2cccc(F)c2)sc1C(=O)N[C@H]1CCCNC1 [AZD7762] + CS(=O)(=O)CCNCc1ccc(-c2ccc3ncnc(Nc4ccc(OCc5cccc(F)c5)c(Cl)c4)c3c2)o1 [Lapatinib] (partner 2 µM)" outcome_measure="relative viability" assay_value=0.968
molecule="NC(=O)Nc1cc(-c2cccc(F)c2)sc1C(=O)N[C@H]1CCCNC1 [AZD7762] + CC1(C)CCC(c2ccc(Cl)cc2)=C(CN2CCN(c3ccc(C(=O)NS(=O)(=O)c4ccc(N[C@H](CCN5CCOCC5)CSc5ccccc5)c(S(=O)(=O)C(F)(F)F)c4)cc3)CC2)C1 [Navitoclax] (partner 0.5 µM)" outcome_measure="relative viability" assay_value=1.09
molecule="NC(=O)Nc1cc(-c2cccc(F)c2)sc1C(=O)N[C@H]1CCCNC1 [AZD7762] + Cc1nc(NC(=O)N2CCC[C@H]2C(N)=O)sc1-c1ccnc(C(C)(C)C(F)(F)F)c1 [Alpelisib] (partner 2 µM)" outcome_measure="relative viability" assay_value=1.03
molecule="NC(=O)Nc1cc(-c2cccc(F)c2)sc1C(=O)N[C@H]1CCCNC1 [AZD7762] + COc1cc2c(Oc3ccc(NC(=O)C4(C(=O)Nc5ccc(F)cc5)CC4)cc3F)ccnc2cc1OCCCN1CCOCC1 [Foretinib] (partner 0.25 µM)" outcome_measure="relative viability" assay_value=1.09

---

Tested on: Calu-6
experiment_description: relative viability (nuclei count vs DMSO), 5 days (fraction); higher = more cells survive
test_conditions: first compound 2.53 µM
Rule: relative viability below 0.9 gives 1 (yes). Equal to or above 0.9 gives 0 (no).

molecule="C=C1C(=O)O[C@@H](CCCCCCCC)[C@@H]1C(=O)O [C-75] + CS(=O)(=O)N1CCN(Cc2cc3nc(-c4cccc5[nH]ncc45)nc(N4CCOCC4)c3s2)CC1 [Pictilisib] (partner 1 µM)" group="1 (yes)"
molecule="Oc1nc(-c2ccc(C(F)(F)F)cc2)nc2c1CSCC2 [XAV939] + C[C@@H](Oc1cc(-c2cnn(C3CCNCC3)c2)cnc1N)c1c(Cl)ccc(F)c1Cl [Crizotinib] (partner 1 µM)" group="1 (yes)"
molecule="Oc1nc(-c2ccc(C(F)(F)F)cc2)nc2c1CSCC2 [XAV939] + Cc1nc(NC(=O)N2CCC[C@H]2C(N)=O)sc1-c1ccnc(C(C)(C)C(F)(F)F)c1 [Alpelisib] (partner 2 µM)" group="0 (no)"

---

System: HCC-366
experiment_description: relative viability (nuclei count vs DMSO), 5 days (fraction); higher = more cells survive
test_conditions: first compound 0.1 µM
outcome_measure: relative viability

molecule="NC(=O)Nc1cc(-c2cccc(F)c2)sc1C(=O)N[C@H]1CCCNC1 [AZD7762] + CC(C)C[C@H](NC(=O)[C@H](Cc1ccccc1)NC(=O)c1cnccn1)B(O)O [Bortezomib] (partner 0.002 µM)" experimental_system=HCC-366 assay_value=1.03
molecule="NC(=O)Nc1cc(-c2cccc(F)c2)sc1C(=O)N[C@H]1CCCNC1 [AZD7762] + Cc1nc(Nc2ncc(C(=O)Nc3c(C)cccc3Cl)s2)cc(N2CCN(CCO)CC2)n1 [Dasatinib] (partner 0.075 µM)" experimental_system=HCC-366 assay_value=0.659
molecule="NC(=O)Nc1cc(-c2cccc(F)c2)sc1C(=O)N[C@H]1CCCNC1 [AZD7762] + Cc1nc(NC(=O)N2CCC[C@H]2C(N)=O)sc1-c1ccnc(C(C)(C)C(F)(F)F)c1 [Alpelisib] (partner 2 µM)" experimental_system=HCC-366 assay_value=0.229
molecule="NC(=O)Nc1cc(-c2cccc(F)c2)sc1C(=O)N[C@H]1CCCNC1 [AZD7762] + CS(=O)(=O)N1CCN(Cc2cc3nc(-c4cccc5[nH]ncc45)nc(N4CCOCC4)c3s2)CC1 [Pictilisib] (partner 1 µM)" experimental_system=HCC-366 assay_value=0.213
molecule="NC(=O)Nc1cc(-c2cccc(F)c2)sc1C(=O)N[C@H]1CCCNC1 [AZD7762] + CS(=O)(=O)CCNCc1ccc(-c2ccc3ncnc(Nc4ccc(OCc5cccc(F)c5)c(Cl)c4)c3c2)o1 [Lapatinib] (partner 2 µM)" experimental_system=HCC-366 assay_value=0.879

---

System: A549
experiment_description: relative viability (nuclei count vs DMSO), 5 days (fraction); higher = more cells survive
test_conditions: first compound 1 µM
Each item that follows carries a reported relative viability.
outcome_measure: relative viability

compound="NC(=O)Nc1cc(-c2cccc(F)c2)sc1C(=O)N[C@H]1CCCNC1 [AZD7762] + O=C(c1cc(Cc2n[nH]c(=O)c3ccccc23)ccc1F)N1CCN(C(=O)C2CC2)CC1 [Olaparib] (partner 8 µM)" experimental_system=A549 outcome_measure="relative viability" assay_value=0.155
compound="NC(=O)Nc1cc(-c2cccc(F)c2)sc1C(=O)N[C@H]1CCCNC1 [AZD7762] + COc1cc2c(Oc3ccc(NC(=O)C4(C(=O)Nc5ccc(F)cc5)CC4)cc3F)ccnc2cc1OCCCN1CCOCC1 [Foretinib] (partner 0.25 µM)" experimental_system=A549 outcome_measure="relative viability" assay_value=0.259
compound="NC(=O)Nc1cc(-c2cccc(F)c2)sc1C(=O)N[C@H]1CCCNC1 [AZD7762] + CS(=O)(=O)CCNCc1ccc(-c2ccc3ncnc(Nc4ccc(OCc5cccc(F)c5)c(Cl)c4)c3c2)o1 [Lapatinib] (partner 2 µM)" experimental_system=A549 outcome_measure="relative viability" assay_value=0.198
compound="NC(=O)Nc1cc(-c2cccc(F)c2)sc1C(=O)N[C@H]1CCCNC1 [AZD7762] + N=C(N)NC(=N)NCCc1ccccc1 [Phenformin] (partner 250 µM)" experimental_system=A549 outcome_measure="relative viability" assay_value=0.184
compound="NC(=O)Nc1cc(-c2cccc(F)c2)sc1C(=O)N[C@H]1CCCNC1 [AZD7762] + CS(=O)(=O)N1CCN(Cc2cc3nc(-c4cccc5[nH]ncc45)nc(N4CCOCC4)c3s2)CC1 [Pictilisib] (partner 1 µM)" experimental_system=A549 outcome_measure="relative viability" assay_value=0.107
